The reported numbers originate from patent US20150105252A1.

- Tested on: velvetleaf
- protocol details: Test C postemergence
- Format: in vivo, Abutilon theophrasti
- experimental setup: postemergence, 250 g ai/ha; scale 0 to 100 (0 no effect, 100 complete control)
assay endpoint: Plant response rating, Velvetleaf

[[record]]
line_notation = "CCc1cc(C(=O)NC2CC2)nn1Cc1ccnc(OCC(F)(F)F)c1"
target_system = "velvetleaf"
endpoint_value = 45

[[record]]
line_notation = "CCc1cc(C(=O)NCC(F)(F)F)nn1Cc1cc(OC(F)F)nn1C"
target_system = "velvetleaf"
endpoint_value = 10


Would you mind listing Plant response rating, Velvetleaf for each of the following compounds?
1. CCCc1cc(C(=O)NCC(F)(F)F)nn1Cc1cc(C(F)(F)F)nn1C
2. CCNC(=O)c1cc(CC)n(Cc2ccnc(OC(F)F)c2)n1

[50, 60]

Plant response rating, Velvetleaf of `CCCNC(=O)c1cc(CCC)n(Cc2cc(C(F)(F)F)nn2C)n1` on velvetleaf? 50
